Assignment: determine reported Ki for the given compounds.
- testSystem: Motilin receptor (Homo sapiens)
Return type: number; implicit unit nM.

Param request: Ki | system Motilin receptor (Homo sapiens) | item "CC(C)C[C@H]1C(=O)NCCCc2ccccc2OCCN[C@H](Cc2ccc(O)cc2)C(=O)N[C@H](C(C)C)C(=O)N1C"
222

State, for Motilin receptor (Homo sapiens), measured Ki of the compound listed here: "CCC[C@@H]1NC(=O)[C@@H](C(C)C)NC(=O)[C@@H](CCc2ccccc2)NCCOc2ccccc2CCCNC1=O"
1490

Send back Motilin receptor (Homo sapiens) Ki of "CCC[C@@H]1NC(=O)[C@@H](C(C)C)NC(=O)[C@@H](Cc2ccc(O)cc2)NCCCCCCCCNC1=O" only.
1200

----------
- testSystem: Motilin receptor (Homo sapiens)
- testDetails: Activity at human MOTR expressed in CHO cells assessed as inhibition of motilin-induced calcium release upto 10 uM
- Assay type: functional, cell-based
- assayContext: filed as antagonist
measuredMetric: Activity

Answered examples (5):
CCC[C@@H]1NC(=O)[C@@H](C(C)C)NC[C@@H](Cc2ccc(O)cc2)NCCOc2ccccc2CCCNC1=O; Antagonist
CCC[C@@H]1NC(=O)[C@@H](C(C)C)NC(=O)[C@@H](CCCCN)NCCOc2ccccc2/C=C/CNC1=O; Antagonist
CCC[C@@H]1NC(=O)[C@@H](C(C)C)NC(=O)[C@@H](Cc2ccc(O)cc2)NCCCc2ccccc2CCNC1=O; Antagonist
CCC[C@@H]1NC(=O)[C@@H](C(C)C)OC(=O)[C@@H](Cc2ccc(O)cc2)NCCOc2ccccc2CCCNC1=O; Antagonist
CCC[C@@H]1NC(=O)[C@H](C(C)C)NC(=O)[C@@H](Cc2ccc(O)cc2)NCCOc2ccccc2/C=C/CNC1=O; Antagonist

Determine its reported Activity: "CCC[C@@H]1NC(=O)[C@@H](C(C)C)NC(=O)[C@@H](CCC(=O)O)NCCOc2ccccc2/C=C/CNC1=O"
Antagonist

Please give measured Activity of the following entry: "CCC[C@H]1NC(=O)[C@@H](C(C)C)NC(=O)[C@@H](Cc2ccc(O)cc2)NCCOc2ccccc2/C=C/CNC1=O"
Antagonist

Given the compound "CCC[C@@H]1NC(=O)[C@@H](CO)NC(=O)[C@@H](Cc2ccc(O)cc2)NCCOc2ccccc2/C=C/CNC1=O" , write its reported Activity.
Antagonist

Please report Activity for the following compound: "CCC[C@H](NC(=O)[C@H](NC(=O)[C@H](N)Cc1ccc(O)cc1)C(C)C)C(N)=O"
Antagonist

Read off the recorded Activity for "CCC[C@@H]1NC(=O)[C@@H](C(C)C)NC(=O)[C@@H](Cc2ccc(O)cc2)NCCOc2ccccc2/C=C/CNC1=O"
Antagonist

Check the records and state Activity for "CCC[C@@H]1NC(=O)[C@@H](C(C)C)NC(=O)[C@@H](Cc2ccc3ccccc3c2)NCCOc2ccccc2CCCNC1=O"
Antagonist

----------
Provide the reported pKi of each item.
Here pKi is given on a logarithmic scale as minus log10 of the concentration in mol/L.

Fill in pKi for "CCC[C@@H]1NC(=O)[C@@H](C(C)C)NC(=O)[C@@H](Cc2ccc(O)cc2)NCCCCc2ccccc2CCNC1=O" tested with Motilin receptor (Homo sapiens, UniProt O43193).
Sequence (O43193 whole entry): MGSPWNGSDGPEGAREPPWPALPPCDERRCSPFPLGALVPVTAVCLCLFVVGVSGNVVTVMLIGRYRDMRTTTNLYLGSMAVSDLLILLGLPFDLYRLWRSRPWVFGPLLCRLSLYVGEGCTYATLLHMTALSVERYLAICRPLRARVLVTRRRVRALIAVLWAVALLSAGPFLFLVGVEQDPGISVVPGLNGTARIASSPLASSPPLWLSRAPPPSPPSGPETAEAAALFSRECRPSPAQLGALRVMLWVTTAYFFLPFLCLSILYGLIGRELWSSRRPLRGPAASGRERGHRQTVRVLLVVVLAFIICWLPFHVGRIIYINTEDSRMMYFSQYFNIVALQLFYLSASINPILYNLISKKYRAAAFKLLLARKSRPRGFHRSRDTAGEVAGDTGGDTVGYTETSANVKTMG
5.22

Report value only: pKi, Motilin receptor (Homo sapiens, UniProt O43193), "CCC[C@@H]1NC(=O)[C@@H](C(C)C)NC(=O)[C@@H](Cc2ccc(O)cc2)NCCc2ccccc2/C=C/CNC1=O"
5.01

Under Motilin receptor (Homo sapiens, UniProt O43193), report pKi for "CCC[C@@H]1NC(=O)[C@@H](C(C)C)NNC(=O)[C@@H](Cc2ccc(O)cc2)NCCOc2ccccc2CCCNC1=O"
5.62

Fetch value of pKi on Motilin receptor (Homo sapiens, UniProt O43193) for "CCC[C@@H]1NC(=O)[C@@H](C(C)C)NC(=O)[C@@H](Cc2c[nH]c3ccccc23)NCCOc2ccccc2CCCNC1=O" .
6.59

Write down the reported pKi (system: Motilin receptor (Homo sapiens, UniProt O43193)) of "CCC[C@@H]1NC(=O)[C@@H](C(C)C)NC(=O)[C@@H](Cc2ccc(O)cc2)NCCOc2ccccc2/C=C/CNC1=O"
6.86

Origin of values: ChEMBL document CHEMBL1137350
